Target: T1, recombinant HIS-tagged rat nectin-4 (R&D Systems Cat. No. 9997-N4-050) (rat, UniProt D3ZET1 31-348)
T1 construct: Bought protein; HIS tag not described
T1 sequence: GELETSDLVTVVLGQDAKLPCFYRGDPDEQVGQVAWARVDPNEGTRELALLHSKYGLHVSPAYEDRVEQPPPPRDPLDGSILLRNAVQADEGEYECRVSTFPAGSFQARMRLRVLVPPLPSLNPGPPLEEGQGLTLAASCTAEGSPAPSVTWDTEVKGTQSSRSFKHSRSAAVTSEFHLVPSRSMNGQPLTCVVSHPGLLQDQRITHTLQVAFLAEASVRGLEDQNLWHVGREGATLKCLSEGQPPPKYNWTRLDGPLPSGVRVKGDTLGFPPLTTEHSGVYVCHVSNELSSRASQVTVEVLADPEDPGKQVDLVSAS
Assay: SPR Biacore 8K+, ADC captured via anti-human Fc, nectin-4 analyte, 37 C;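 note: Nectin-4 injected over captured ADC at 0 to 600 nM for 2 min association, then 10 min dissociation, with a reference flow cell lacking ADC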
Below is a list of entries, each paired with its recorded Kd value.

binder | Kd (nM)
Ab5 ADC (Ab5 conjugated as in Formula XI, DAR of 8) (antibody, human IgG1, kappa, L234A L235A, V domains shown, camptothecin analog linker-payload of Formula XI on cysteine thiols after full reduction, DAR of 8 per antibody; positions not given, Antibody-drug conjugate of Ab5; also called Ab5 (ADC column)) VH: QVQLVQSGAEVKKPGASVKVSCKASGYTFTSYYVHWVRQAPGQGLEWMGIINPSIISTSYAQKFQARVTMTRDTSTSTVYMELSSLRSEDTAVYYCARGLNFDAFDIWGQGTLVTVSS VL: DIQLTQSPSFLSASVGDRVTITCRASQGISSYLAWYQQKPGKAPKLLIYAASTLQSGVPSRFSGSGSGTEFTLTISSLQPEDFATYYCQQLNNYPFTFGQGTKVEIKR | 31.3
Ab8 ADC (Ab8 conjugated as in Formula XI, DAR of 8) (antibody, human IgG1, lambda, L234A L235A, V domains shown, camptothecin analog linker-payload of Formula XI on cysteine thiols after full reduction, DAR of 8 per antibody; positions not given, Antibody-drug conjugate of Ab8; also called Ab8 (ADC column)) VH: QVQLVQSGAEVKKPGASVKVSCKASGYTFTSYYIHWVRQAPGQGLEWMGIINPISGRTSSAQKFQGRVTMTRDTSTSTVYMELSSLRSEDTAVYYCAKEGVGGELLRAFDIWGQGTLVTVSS VL: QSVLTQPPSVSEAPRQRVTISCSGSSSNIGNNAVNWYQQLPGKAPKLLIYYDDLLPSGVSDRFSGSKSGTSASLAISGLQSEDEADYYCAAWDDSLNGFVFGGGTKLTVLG | 34.4
Ab7 ADC (Ab7 conjugated as in Formula XI, DAR of 8) (antibody, human IgG1, lambda, L234A L235A, V domains shown, camptothecin analog linker-payload of Formula XI on cysteine thiols after full reduction, DAR of 8 per antibody; positions not given, Antibody-drug conjugate of Ab7; also called Ab7 (ADC column)) VH: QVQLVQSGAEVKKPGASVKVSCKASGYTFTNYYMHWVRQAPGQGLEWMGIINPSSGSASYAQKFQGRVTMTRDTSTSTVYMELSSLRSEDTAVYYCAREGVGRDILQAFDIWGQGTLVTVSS VL: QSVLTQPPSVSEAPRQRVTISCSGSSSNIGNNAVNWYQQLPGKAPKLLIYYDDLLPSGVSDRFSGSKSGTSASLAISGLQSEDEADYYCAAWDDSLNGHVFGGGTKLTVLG | 73.1
Ab1a ADC (Ab1a conjugated as in Formula XI, DAR of 8) (antibody, human IgG1, kappa, L234A L235A, V domains shown, camptothecin analog linker-payload of Formula XI on cysteine thiols after full reduction, DAR of 8 per antibody; positions not given, Antibody-drug conjugate of Ab1a; also called Ab1a (ADC column)) VH: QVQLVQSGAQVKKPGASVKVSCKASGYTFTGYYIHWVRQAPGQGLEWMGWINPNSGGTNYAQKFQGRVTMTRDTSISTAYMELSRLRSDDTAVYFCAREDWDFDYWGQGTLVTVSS VL: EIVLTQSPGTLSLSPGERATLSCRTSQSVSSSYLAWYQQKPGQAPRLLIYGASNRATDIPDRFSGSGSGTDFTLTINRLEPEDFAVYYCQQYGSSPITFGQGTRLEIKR | 180
Ab6 ADC (Ab6 conjugated as in Formula XI, DAR of 8) (antibody, human IgG1, lambda, L234A L235A, V domains shown, camptothecin analog linker-payload of Formula XI on cysteine thiols after full reduction, DAR of 8 per antibody; positions not given, Antibody-drug conjugate of Ab6; also called Ab6 (ADC column)) VH: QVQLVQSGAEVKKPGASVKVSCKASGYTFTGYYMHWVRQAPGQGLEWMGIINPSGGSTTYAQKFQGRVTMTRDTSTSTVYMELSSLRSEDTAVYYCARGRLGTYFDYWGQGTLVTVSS VL: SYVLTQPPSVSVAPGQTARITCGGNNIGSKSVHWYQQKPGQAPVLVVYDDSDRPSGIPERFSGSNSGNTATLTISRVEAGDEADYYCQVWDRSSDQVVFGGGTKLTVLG | 114
Ab3 ADC (Ab3 conjugated as in Formula XI, DAR of 8) (antibody, human IgG1, kappa, L234A L235A, V domains shown, camptothecin analog linker-payload of Formula XI on cysteine thiols after full reduction, DAR of 8 per antibody; positions not given, Antibody-drug conjugate of Ab3; also called Ab3 (ADC column)) VH: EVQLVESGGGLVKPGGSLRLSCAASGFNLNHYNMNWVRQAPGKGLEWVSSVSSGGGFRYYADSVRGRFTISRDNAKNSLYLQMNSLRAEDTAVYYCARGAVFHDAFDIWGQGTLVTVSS VL: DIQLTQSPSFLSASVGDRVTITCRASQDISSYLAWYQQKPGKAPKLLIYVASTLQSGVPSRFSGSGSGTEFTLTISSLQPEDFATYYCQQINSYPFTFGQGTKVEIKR | 5.28
